# Assay notes: NCI Yeast Anticancer Drug Screen. Data for the sgs1 mgt1 strain (AID 161);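 also: 0% = growth of cultures given vehicle only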
# Condition description: S. cerevisiae sgs1 mgt1 strain, at 50.0 µM, stronger effect = higher value
The panel holds about 79,000 compounds, 15% with a hit somewhere; the sample as a whole holds those more often. Activity calls are given as the source filed them. Rule as the data show it: active = growth inhibition above about 70%; inactive = the rest.
Measure name: growth inhibition

>  <Compound>
CCCCCCCCC/C=C1\CCC(CN2CCOCC2)C1=O (configuration not stated)

>  <Obs value>
90.3% (active)

$$$$
>  <Compound>
N#CC(C#N)=CNc1cccc(Cl)c1

>  <Obs value>
29.2% (inactive)

$$$$
>  <Compound>
CCCCCCCCCCCCCCCCn1cnc2c(=S)nc[nH]c21

>  <Obs value>
-19.1% (inactive)

$$$$
>  <Compound>
CC(=O)OC12CC(C)C3(O)C4C=C(C)C(=O)[C@@]4(O)CC(CO)=C[C@H]3C1C2(C)C (some centres not stated)

>  <Obs value>
9.95% (inactive)

$$$$
>  <Compound>
BrC1(C2(Br)N(c3ccccc3)CCN2c2ccccc2)N(c2ccccc2)CCN1c1ccccc1

>  <Obs value>
42.4% (inactive)

$$$$
>  <Compound>
O=C1CN(C=C2C(=O)NC(=O)NC2=O)C(=S)N1

>  <Obs value>
-43% (inactive)

$$$$
>  <Compound>
C/C=N\n1c(C)c(C#N)c(C#N)c1N

>  <Obs value>
-23.6% (inactive)

$$$$
>  <Compound>
COc1ccc(N=C2[Se]C(=NC(=O)c3ccccc3)N(c3ccc(OC)cc3)C2=Nc2ccc(OC)cc2)cc1

>  <Obs value>
-22.2% (inactive)

$$$$
>  <Compound>
C/C(=N\Nc1ccc2ccccc2n1)c1ccccc1O

>  <Obs value>
-37.3% (inactive)

$$$$
>  <Compound>
COCOC(C)=O

>  <Obs value>
3.7% (inactive)

$$$$
>  <Compound>
CC1=CC(=O)c2ccc(F)cc2C1=O

>  <Obs value>
15% (inactive)

$$$$
>  <Compound>
O=C(CNc1ccc2c(=S)c3ccccc3[nH]c2c1)Nc1ccccc1-c1ccccc1NC(=O)CNc1ccc2c(=S)c3ccccc3[nH]c2c1

>  <Obs value>
92.1% (active)

$$$$
>  <Compound>
Cc1cc(Cl)cc(CN(Cc2ccccc2)Cc2cc(Cl)cc(C)c2O)c1O

>  <Obs value>
18.2% (inactive)

$$$$
>  <Compound>
CC(C)C(=O)C(C)(C)CCc1ccccn1

>  <Obs value>
-28.6% (inactive)

$$$$
>  <Compound>
Nc1cc(S(=O)(=O)O)cc2cccc(S(=O)(=O)O)c12

>  <Obs value>
0.35% (inactive)

$$$$
>  <Compound>
CCC(C(=O)O)C(C)(C)C (configuration not stated)

>  <Obs value>
1.8% (inactive)

$$$$
>  <Compound>
c1ccc(-c2c3ccccc3cc3c2ccc2ccccc23)cc1

>  <Obs value>
-3.95% (inactive)

$$$$
>  <Compound>
CCCCSc1n[nH]c(C2CCC(=O)N2Cc2ccccc2)n1 (configuration not stated)

>  <Obs value>
-0.8% (inactive)

$$$$
>  <Compound>
Cc1ccc(S(=O)(=O)N2N=C(c3ccccc3)CC2c2ccccc2)cc1 (configuration not stated)

>  <Obs value>
88.4% (active)

$$$$
>  <Compound>
COC(=O)C(=O)C(C(=O)c1cccc2ccccc12)c1nc2n(c1O)C(=N)N=N2 (configuration not stated)

>  <Obs value>
11.6% (inactive)

$$$$
>  <Compound>
CC(=O)OC/C=C(C)/C=C/C=C(C)/C=C/C1=C(C)CCCC1(C)C

>  <Obs value>
-20.3% (inactive)

$$$$
>  <Compound>
CCOC(=O)C1CC(=O)c2cc(OC)c(OC)cc2C1c1ccc(OC)c(OC)c1 (configuration not stated)

>  <Obs value>
0.1% (inactive)

$$$$

----------
# Assay notes: NCI Yeast Anticancer Drug Screen. Data for the bub3 strain (AID 167)
# Condition description: S. cerevisiae bub3 mutant strain, at 50.0 µM, stronger effect = higher value
The panel holds about 79,000 compounds, 15% with a hit somewhere; the sample as a whole holds those more often.

>  <Compound>
COC(=O)/C=C(/C(=O)OC)c1c(C)c(C)c2c(C)cc(C)cc(C)c1-2

>  <growth inhibition [%]>
34.9

$$$$
>  <Compound>
CNC(=O)C1CCCN1C(=O)C(Cl)Cl (stereo not given)

>  <growth inhibition [%]>
-10.8

$$$$
>  <Compound>
CCN(CC)CCNc1ccc(N)c2sc3ccccc3c(=O)c12

>  <growth inhibition [%]>
-37.6

$$$$
>  <Compound>
C=CC/C=C/CCC

>  <growth inhibition [%]>
-2.4

$$$$
>  <Compound>
O=Cc1sccc1NC(=O)c1ccccc1

>  <growth inhibition [%]>
-7.5

$$$$

----------
# Assay notes: NCI Yeast Anticancer Drug Screen. Data for the sgs1 mgt1 strain (AID 161);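 also: 0% = growth of cultures given vehicle only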
# Condition description: S. cerevisiae sgs1 mgt1 strain, at 50.0 µM, stronger effect = higher value
Compounds without any hit were thinned out: in the full panel of roughly 79,000, 15% have a hit.
Catalogue of compounds with associated growth inhibition

>  <Compound>
Cc1ncc2c(n1)NC(=O)NC2

>  <growth inhibition [%]>
-16.6

$$$$
>  <Compound>
O=C(OCCNC(=O)N1CCOCC1)OCCNC(=O)N1CCOCC1

>  <growth inhibition [%]>
-8.55

$$$$
>  <Compound>
CCCC1(O)c2ccccc2-c2ccccc21

>  <growth inhibition [%]>
-5.6

$$$$
>  <Compound>
CCOC(=O)C1(C(=O)OCC)CCCCC1=O

>  <growth inhibition [%]>
-22.9

$$$$
>  <Compound>
CCOC(=O)c1cnc(-n2[nH]c(C)c(CCO)c2=O)[nH]c1=O

>  <growth inhibition [%]>
-33.1

$$$$
>  <Compound>
CN(C)NC(=O)Nc1cccc2ccccc12

>  <growth inhibition [%]>
-6.15

$$$$
>  <Compound>
FCCN(CCF)Cc1ccc2c(c1)OCO2

>  <growth inhibition [%]>
2.05

$$$$
>  <Compound>
C[N+](C)(C)C1(Cc2ccccc2)c2ccccc2-c2ccc(Cl)cc21 (stereo unspecified)

>  <growth inhibition [%]>
21.2

$$$$
>  <Compound>
CCOCCn1c(=O)cc(C)c2ccccc21

>  <growth inhibition [%]>
-16.8

$$$$
>  <Compound>
CCCC(=O)Nc1cc(C(=O)N2C[C@@H]3C[C@]34C2=CC(=O)c2[nH]cc(C)c24)n(COC)c1

>  <growth inhibition [%]>
30.6

$$$$
>  <Compound>
COC(=O)Oc1ccccc1C(=O)O

>  <growth inhibition [%]>
-15.6

$$$$
>  <Compound>
Nc1cc(Cl)c(N(CCO)C2=NCCN2)c(Cl)c1

>  <growth inhibition [%]>
3.05

$$$$
>  <Compound>
Cc1ccccc1NC=O

>  <growth inhibition [%]>
-44.5

$$$$
>  <Compound>
CCCC1(C)OCC(C)(C)CO1

>  <growth inhibition [%]>
-13.3

$$$$
>  <Compound>
Fc1cc(F)c2c(c1)Nc1cc(F)cc(F)c1S2

>  <growth inhibition [%]>
4.75

$$$$
>  <Compound>
Cc1cnc2cc(Cl)ccc2c1SCC(=O)O

>  <growth inhibition [%]>
-42.9

$$$$
>  <Compound>
O=C(Cc1ccccc1)c1c[nH]c2c(O)ccc(O)c12

>  <growth inhibition [%]>
-12.3

$$$$
>  <Compound>
Cc1ccc(S(=O)(=O)OC(c2ccc(Cl)cc2)C(F)(F)F)cc1 (stereo unspecified)

>  <growth inhibition [%]>
-0.55

$$$$
>  <Compound>
CN(C)c1nc(Cl)nc2c1ncn2-c1ccccc1

>  <growth inhibition [%]>
3.1

$$$$
>  <Compound>
Nc1c2cc3ccc2nc2ccc(cc12)OCCOCCOCCOCCOCCOCCO3

>  <growth inhibition [%]>
-9.55

$$$$
>  <Compound>
COC(=O)NC(Nc1ccc(Cl)cc1Cl)(C(F)(F)F)C(F)(F)F

>  <growth inhibition [%]>
12.2

$$$$
>  <Compound>
O=C(Nc1ccccc1)OC1C=CC2CCC1C2 (stereo unspecified)

>  <growth inhibition [%]>
38.6

$$$$
>  <Compound>
C[Si](C)(OCCS(=O)(=O)O)C1S(=O)(=O)OCCOS1(=O)=O

>  <growth inhibition [%]>
-12.9

$$$$
>  <Compound>
O=C(O)CC(C(=O)O)=C1CCCCC1

>  <growth inhibition [%]>
0.5

$$$$
>  <Compound>
O=c1c(C(c2ccc(Cl)cc2)c2c(O)c3ccccc3n(-c3ccccc3)c2=O)c(O)c2ccccc2n1-c1ccccc1

>  <growth inhibition [%]>
-9.95

$$$$
>  <Compound>
Cc1ccc(C2SC(N)=Nc3c2c(C)nn3C(=O)c2ccccc2O)cc1 (stereo unspecified)

>  <growth inhibition [%]>
34.9

$$$$
>  <Compound>
CN1CNC(=O)c2n[nH]nc21

>  <growth inhibition [%]>
-4.15

$$$$
>  <Compound>
CCC1c2c(cc(=O)[nH]c2O)C(=O)N1C (stereo unspecified)

>  <growth inhibition [%]>
3.95

$$$$
>  <Compound>
CN(/N=C1\C(=O)Nc2ccccc21)c1ccccc1

>  <growth inhibition [%]>
13.6

$$$$
>  <Compound>
COc1ccc(C(=O)OC2CCCC2)cc1

>  <growth inhibition [%]>
39.5

$$$$
>  <Compound>
Cc1c(C(=N)N)oc2ccccc12

>  <growth inhibition [%]>
0.4

$$$$
